- SYSTEM_NAME: kinases (Homo sapiens, UniProt P00533, G719S)
- Construct: purchased Eurofins/DiscoveRx; host or cells: E. coli BL21-derived host (T7 phage display) for most kinases; HEK-293 for the rest
- ASSAY_SUMMARY: KINOMEscan kinase binding assay (Eurofins/DiscoveRx), % Ctrl
- CONDITIONS_USED: 1 μM; EGFR(G719S)
MEASURED_ATTRIBUTE: % Ctrl, EGFR(G719S) (% Ctrl)
Number in % Ctrl, nothing else.

These solved cases illustrate the format of a correct answer.
1. Cc1cc2c([nH]1)/C=C1\C(=O)Nc3ccc(cc31)-c1ccnn1CCOCCNC2=O [Ex.39]; 77
2. Cc1cc2c([nH]1)/C=C1\C(=O)Nc3ccc(cc31)-c1c(noc1C)COCCN(C)C2=O [Ex. 128]; 97
3. Cc1cc2c([nH]1)/C=C1\C(=O)Nc3cnc(cc31)-c1cnn(C)c1COCCNC2=O [Ex.123]; 94
4. Cc1cc2c([nH]1)/C=C1\C(=O)Nc3ccc(cc31)OCCOCCN(C)C2=O [Ex.91]; 87
5. Cc1cc2c([nH]1)/C=C1\C(=O)Nc3ccc(cc31)OCCOCCNC2=O [Ex. 129]; 97
6. Cc1cc2c([nH]1)/C=C1\C(=O)Nc3cc(Cl)c(cc31)OCCOCCN(C)C2=O [Ex. 131]; 80
7. Cc1cc2c([nH]1)/C=C1\C(=O)Nc3cc(Cl)c(cc31)OCCO[C@@H](C(=O)N[C@@H]1CCNC1)CN(C)C2=O [Ex. 136]; 92
8. Cc1cc2c([nH]1)/C=C1\C(=O)Nc3ccc(cc31)O[C@@H](C)COCCN(C)C2=O [Ex. 92]; 98
9. Cc1cc2c([nH]1)/C=C1\C(=O)Nc3ccc(cc31)-c1cnn(C)c1COCCN(C)C2=O [Ex. 124]; 97
10. Cc1cc2c([nH]1)/C=C1\C(=O)Nc3cc(Cl)c(cc31)OCCO[C@@H](C(=O)N(C)C)CN(C)C2=O [Ex. 137]; 98

% Ctrl, EGFR(G719S) measured on Cc1cc2c([nH]1)/C=C1\C(=O)Nc3cnc(nc31)N(C)CCCOCCN(C)C2=O [Ex.71] = 76

Record Cc1cc2c([nH]1)/C=C1\C(=O)Nc3ccc(cc31)-c1ccnn1CCNCCNC2=O [Ex. 43] , field % Ctrl, EGFR(G719S): 92

# molecule CNC(=O)[C@H]1CN(C)C(=O)c2cc(C)[nH]c2/C=C2\C(=O)Nc3cc(Cl)c(cc32)OCCO1 [Ex. 135] ; its % Ctrl, EGFR(G719S) = 92

* * *

Reported % Ctrl, FLT4 values follow for various compounds
- SYSTEM_NAME: kinases (Homo sapiens, UniProt P35916)
- Construct: purchased Eurofins/DiscoveRx; host or cells: E. coli BL21-derived host (T7 phage display) for most kinases; HEK-293 for the rest
- Sequence (P35916 25-1363): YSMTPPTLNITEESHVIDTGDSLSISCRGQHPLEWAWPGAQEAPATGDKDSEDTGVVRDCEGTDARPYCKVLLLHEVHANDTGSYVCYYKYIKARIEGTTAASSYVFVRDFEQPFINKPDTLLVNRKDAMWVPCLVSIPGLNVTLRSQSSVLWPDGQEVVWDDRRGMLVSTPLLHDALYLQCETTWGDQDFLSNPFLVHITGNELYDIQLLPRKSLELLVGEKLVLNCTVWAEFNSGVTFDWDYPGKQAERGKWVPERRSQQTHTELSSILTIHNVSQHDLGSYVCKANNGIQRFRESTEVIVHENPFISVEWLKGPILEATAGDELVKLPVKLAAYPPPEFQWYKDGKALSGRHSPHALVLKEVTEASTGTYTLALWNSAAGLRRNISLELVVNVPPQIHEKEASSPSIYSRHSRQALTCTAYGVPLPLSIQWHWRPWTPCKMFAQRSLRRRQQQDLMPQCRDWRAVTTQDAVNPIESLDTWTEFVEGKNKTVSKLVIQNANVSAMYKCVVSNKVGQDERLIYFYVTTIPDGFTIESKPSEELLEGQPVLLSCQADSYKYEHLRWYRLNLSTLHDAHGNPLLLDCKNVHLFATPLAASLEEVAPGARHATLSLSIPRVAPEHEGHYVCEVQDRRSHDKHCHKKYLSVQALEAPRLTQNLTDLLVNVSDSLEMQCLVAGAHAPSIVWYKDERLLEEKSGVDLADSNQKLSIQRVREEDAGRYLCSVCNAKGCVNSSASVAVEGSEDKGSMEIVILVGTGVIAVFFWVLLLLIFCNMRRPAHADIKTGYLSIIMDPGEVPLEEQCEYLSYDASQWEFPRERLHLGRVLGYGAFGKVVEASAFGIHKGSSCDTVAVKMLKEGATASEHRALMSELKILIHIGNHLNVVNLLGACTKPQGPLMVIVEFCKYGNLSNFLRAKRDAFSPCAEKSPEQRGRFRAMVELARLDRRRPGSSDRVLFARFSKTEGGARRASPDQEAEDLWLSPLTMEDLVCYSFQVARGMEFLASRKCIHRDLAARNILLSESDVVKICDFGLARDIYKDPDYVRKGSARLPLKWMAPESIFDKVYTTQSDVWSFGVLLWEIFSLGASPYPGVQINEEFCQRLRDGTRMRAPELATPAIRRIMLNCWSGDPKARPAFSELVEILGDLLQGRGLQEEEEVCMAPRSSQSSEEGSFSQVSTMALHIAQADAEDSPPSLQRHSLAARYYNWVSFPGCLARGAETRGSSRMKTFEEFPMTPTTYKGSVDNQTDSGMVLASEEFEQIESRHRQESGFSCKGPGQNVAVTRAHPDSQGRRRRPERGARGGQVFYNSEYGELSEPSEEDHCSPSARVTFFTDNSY
- ASSAY_SUMMARY: KINOMEscan kinase binding assay (Eurofins/DiscoveRx), % Ctrl
- CONDITIONS_USED: 1 μM; target FLT4
Your answer is read as % Ctrl, so omit the unit and give the number.

Solved cases below.
1. CN1CCOc2cc3c(cc2Cl)NC(=O)/C3=C\c2[nH]ccc2C(=O)N(C)CC1 [Ex. 164]; 0.2
2. Cc1cc2c([nH]1)/C=C1\C(=O)Nc3cnc(cc31)-c1cnn(C)c1CN(C)CCN(C)C2=O [Ex. 172]; 1.7

The reported % Ctrl, FLT4 value, kinases (Homo sapiens, UniProt P35916), for Cc1cc2c([nH]1)/C=C1\C(=O)Nc3ccc(cc31)-c1cnn(C)c1OCCCN(C)C2=O [Ex. 166] reads 49

Form field % Ctrl, FLT4 for item Cc1cc2c([nH]1)/C=C1\C(=O)Nc3ccc(cc31)-c1c(noc1C(C)C)COCCN(C)C2=O [Ex. 161] on kinases (Homo sapiens, UniProt P35916): 79

Observed % Ctrl, FLT4 on kinases (Homo sapiens, UniProt P35916), entry Cc1cc2c([nH]1)/C=C1\C(=O)Nc3cc(Cl)c(cc31)SCCOCCN(C)C2=O [Ex. 169] , equals 0.1

// data source = patent US20230257396A1
